# Tested on: HCC1954
# Experiment: Viability assay, BRCA1 WT cell line HCC1954
# Format: cell-based
# Condition Parameters: Homo sapiens, HCC1954, viability, read-out: HCC1954 rel IC50
pIC50: −log10 of the molar value.
Readings of pIC50 for the listed molecules

input: Using the record for COc1ccn(-c2ccc(Cn3c(=N)n(C)c4cnc(-c5ccccc5C(C)C)nc43)cc2F)n1 , report its pIC50.
output: 5.00 to 6.60

input: Proceed to COc1ncnc(C2CC2)c1-c1ncc2c(n1)n(C[C@H]1CC[C@H](c3nc(C(F)(F)F)cn3C)CC1)c(=N)n2C
output: ≤ 5.00

input: Please give the result for COc1nccc(F)c1-c1ncc2c(n1)n(Cc1ccc(-c3nc(C(F)(F)F)cn3C)cc1)c(=N)n2C too.
output: ≤ 5.00

input: Here is the next molecule: CC(C)c1ccccc1-c1nc(C(N)=O)c2c(n1)n(Cc1ccc(-c3nc(C(F)(F)F)cn3C)cc1)c(=N)n2C
output: 5.00 to 6.60
